Please provide measured EC50 for the entries that follow.
Molecular target: T1, Full length human PD1 (huPD1) on cells (human, UniProt Q15116 25-288)
T1 construct: on T cells of human donors in the MLR and CMV assays (functional); also called PD-1 on Jurkat cells
T1 sequence (Q15116 25-288 limits assumed): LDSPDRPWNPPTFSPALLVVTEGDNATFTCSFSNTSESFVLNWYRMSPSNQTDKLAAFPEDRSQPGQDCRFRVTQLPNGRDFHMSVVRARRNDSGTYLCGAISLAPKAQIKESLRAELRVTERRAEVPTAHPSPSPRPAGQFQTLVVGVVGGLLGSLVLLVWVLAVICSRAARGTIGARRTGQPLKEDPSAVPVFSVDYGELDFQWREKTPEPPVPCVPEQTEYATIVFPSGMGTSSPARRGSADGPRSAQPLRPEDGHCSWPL
Experiment: flow cytometry, PHA-stimulated Jurkat cells
Use µg/mL as the unit, but write only the number.

Any idea what EC50 was measured for PD1B177 (antibody, V domains shown, Tested as IgG2sigma; also called PD1H164/PH9L3) VH: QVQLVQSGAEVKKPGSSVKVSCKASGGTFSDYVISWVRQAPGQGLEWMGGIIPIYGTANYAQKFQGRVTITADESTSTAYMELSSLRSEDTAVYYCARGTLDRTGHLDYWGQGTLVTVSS VL: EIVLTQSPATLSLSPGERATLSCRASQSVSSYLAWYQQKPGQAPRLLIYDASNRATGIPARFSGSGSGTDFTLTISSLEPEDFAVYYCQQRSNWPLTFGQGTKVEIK ?
0.05

Any idea what EC50 was measured for PD1B70 (antibody, V domains shown, Tested as IgG2sigma/kappa; also called PD1H107/PH9L3) VH: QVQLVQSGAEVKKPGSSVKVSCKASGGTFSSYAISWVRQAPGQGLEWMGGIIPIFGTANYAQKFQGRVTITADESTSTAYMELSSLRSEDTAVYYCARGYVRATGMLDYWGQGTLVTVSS VL: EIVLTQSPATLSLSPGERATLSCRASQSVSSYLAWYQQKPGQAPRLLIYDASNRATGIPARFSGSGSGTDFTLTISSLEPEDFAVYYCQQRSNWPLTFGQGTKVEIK ?
0.69

Any idea what EC50 was measured for PD1B114 (antibody, human IgG2, kappa, V domains shown, IgG2sigma/kappa; also called PD1H24/PH9L3) VH: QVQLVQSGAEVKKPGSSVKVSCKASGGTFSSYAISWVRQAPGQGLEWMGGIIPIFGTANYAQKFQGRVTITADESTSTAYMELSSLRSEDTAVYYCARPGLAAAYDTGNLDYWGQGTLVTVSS VL: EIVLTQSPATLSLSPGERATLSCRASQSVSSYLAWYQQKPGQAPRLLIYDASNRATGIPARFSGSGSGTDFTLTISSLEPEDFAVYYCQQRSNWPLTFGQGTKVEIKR ?
0.47
